- Tested on: IGROV1 ovarian
- PROTOCOL TEXT: NCI tumour cell line growth inhibition, 48 h
PARAMETER: TGI

>  <COMPOUND>
CCOC(=O)C1Nc2ccc([N+](=O)[O-])cc2[C@H]2OCC[C@@H]12 (stereo partly drawn)

>  <TGI>
> 100 µM

$$$$

Request: What TGI appears in the records for this compound with IGROV1 ovarian? `O=C(NCCN1CCOCC1)Nc1nc2ccc(Sc3nnc4ccc(-c5ccc(F)cc5)nn34)cc2s1`
Response: > 100 µM

Request: I'm curious: which TGI was measured for `CC1(C)[C@H]2CC[C@](C)(C2)[C@]1(S)Cc1ccccn1` tested on IGROV1 ovarian?
Response: > 100 µM
